All values here come from paper PMC6008491.

- ASSAY_SYSTEM: PARP14 MD2 (Homo sapiens, UniProt Q460N5)
- ASSAY_INFO: AlphaScreen competitive binding assay, displacement of ADP-ribose peptide from PARP14 MD2
- Design: PARP14 MD2 (second MD of PARP14)
- TEST_CONTEXT: Table 1; AlphaScreen, PARP14 MD2; read-out: IC50
What IC50 was measured for each of the following?
One number for each entry, in µM.

// batch mode: one IC50 value per listed entry
1. CCCC(=O)Nc1ccccc1-c1cccc2c1[nH]c1ccccc12 [compound 67, N-(2-(9H-carbazol-1-yl)phenyl)butyramide]
2. COc1cccc(C(=O)Nc2ccccc2-c2cccc3c2[nH]c2ccccc23)c1
3. CN(C)CC(=O)Nc1ccccc1-c1cccc2c1[nH]c1ccccc12
4. O=C(Nc1ccccc1-c1cccc2c1[nH]c1ccccc12)C1CC1

Reply |
0.9
12.7
5.5
1.2

---

- ASSAY_SYSTEM: PARP14 MD2 (Homo sapiens, UniProt Q460N5)
- ASSAY_INFO: AlphaScreen competitive binding assay, displacement of ADP-ribose peptide from PARP14 MD2
- Design: PARP14 MD2 (second MD of PARP14)
- Excerpt: Compounds were profiled for binding activity with PARP14 MD2 through a competitive (AlphaScreen™) binding assay measuring the displacement of ADP-ribose peptide from PARP14 MD2.[11a]

SMILES_STR	inhibition of PARP14 MD2 (in words)
COc1ccc2[nH]c3c(-c4ccccc4NC(C)=O)cccc3c2c1	inactive
CC(=O)Nc1ccccc1-c1cccc2c(=O)c3ccccc3[nH]c12	inactive
CC(=O)Nc1ccccc1-c1cccc2c3c([nH]c12)CCNC3	inactive

---

- ASSAY_SYSTEM: PARP14 MD2 (Homo sapiens, UniProt Q460N5)
- ASSAY_INFO: Biophysical KD determination (Bio-Layer Interferometry or Isothermal Titration Calorimetry)
- Type: binding
- Design: PARP14 MD2 (second MD of PARP14)
- TEST_CONTEXT: Table 1, BLI or ITC
REPORTED_PROPERTY: pKd
Answers are plain numbers, as −log10 of the molar value.

SMILES_STR	pKd
CC(=O)Nc1cccc(C)c1-c1cccc2c1[nH]c1ccccc12	5.80

API: the following record is the query input.
Ask | For the record CS(=O)(=O)Nc1cc(C#N)ccc1-c1cccc2c1[nH]c1ccccc12 , what value of pKd is listed for PARP14 MD2 (Homo sapiens, UniProt Q460N5)?
Reply | 5.28

---

- ASSAY_SYSTEM: PARP14 MD2 (Homo sapiens)
- ASSAY_INFO: AlphaScreen competitive binding assay, displacement of ADP-ribose peptide from PARP14 MD2
- Design: PARP14 MD2 (second MD of PARP14)
- TEST_CONTEXT: Table 2; AlphaScreen, PARP14 MD2; read-out: IC50
What log10 of IC50 was measured for each of the following?
Heads up: the numbers are on a log10 scale; they represent IC50 in µM.

// batch mode: one log10 of IC50 value per listed entry
1. O=C(Cc1cccnc1)Nc1ccccc1-c1cccc2c1[nH]c1ccccc12 [compound 83]
2. N#Cc1ccc(CC(=O)Nc2ccccc2-c2cccc3c2[nH]c2ccccc23)cn1 [compound 87]

Reply |
1: 0.04; 2: 0.54

// batch mode: one log10 of IC50 value per listed entry
1. COc1cccc(CC(=O)Nc2ccccc2-c2cccc3c2[nH]c2ccccc23)c1 [compound 103]
2. O=C(Cc1ccccc1F)Nc1ccccc1-c1cccc2c1[nH]c1ccccc12 [compound 90]
3. O=C(Cc1ccc(=O)[nH]c1)Nc1ccccc1-c1cccc2c1[nH]c1ccccc12 [compound 88]
4. COc1ccc(CC(=O)Nc2ccccc2-c2cccc3c2[nH]c2ccccc23)cc1OC [compound 98]
5. COc1ccc(CC(=O)Nc2ccccc2-c2cccc3c2[nH]c2ccccc23)cc1 [compound 94]
6. O=C(Cc1cnccn1)Nc1ccccc1-c1cccc2c1[nH]c1ccccc12 [compound 85]
7. O=S(=O)(Cc1cccc(F)c1)Nc1ccccc1-c1cccc2c1[nH]c1ccccc12 [compound 105]
8. Cc1ccc(CC(=O)Nc2ccccc2-c2cccc3c2[nH]c2ccccc23)cn1 [compound 84]

Reply |
0.82
0.45
0.82
0.63
0.79
0.32
0.15
0.00

// batch mode: one log10 of IC50 value per listed entry
1. O=S(=O)(Cc1ccc(C(F)(F)F)cc1)Nc1ccccc1-c1cccc2c1[nH]c1ccccc12 [compound 97]
2. N#Cc1cccc(CS(=O)(=O)Nc2ccccc2-c2cccc3c2[nH]c2ccccc23)c1 [compound 108]

Reply |
[0.91, -0.18]

---

- ASSAY_SYSTEM: PARP14 MD2 (Homo sapiens, UniProt Q460N5)
- ASSAY_INFO: BioLayer Interferometry (BLI)
- TEST_CONTEXT: read-out: calculated KD (BLI)
REPORTED_PROPERTY: Kd (nM)
Numbers only, in nM.

Ask | Report Kd for N#Cc1cccc(CS(=O)(=O)Nc2ccccc2-c2cccc3c2[nH]c2ccccc23)c1 [compound 108] please.
Reply | 550

---

- ASSAY_SYSTEM: PARP14 MD2 (Homo sapiens)
- ASSAY_INFO: AlphaScreen competitive binding assay, displacement of ADP-ribose peptide from PARP14 MD2
- Parameters: PARP14 MD2 (second MD of PARP14)
- TEST_CONTEXT: Table 1; AlphaScreen, PARP14 MD2; read-out: IC50
What pIC50 was measured for each of the following?
One number for each entry, as −log10 of the molar value.

MOLECULE	pIC50
COCCS(=O)(=O)Nc1ccccc1-c1cccc2c1[nH]c1ccccc12	5.07

// batch mode: one pIC50 value per listed entry
1. CCS(=O)(=O)Nc1ccccc1-c1cccc2c1[nH]c1ccccc12
2. CCCCS(=O)(=O)Nc1ccccc1-c1cccc2c1[nH]c1ccccc12
3. CN(C)S(=O)(=O)Nc1ccccc1-c1cccc2c1[nH]c1ccccc12
4. O=C(Nc1ccccc1-c1cccc2c1[nH]c1ccccc12)c1ccccc1 [compound 77, N-(2-(9H-carbazol-1-yl)phenyl)benzamide]
5. CC(=O)Nc1cccc(C)c1-c1cccc2c1[nH]c1ccccc12

Reply |
1: 5.92; 2: 5.48; 3: 5.60; 4: 5.72; 5: 5.77

---

What IC50 was measured for each of the following?
- ASSAY_SYSTEM: PARP14 MD2 (Homo sapiens, UniProt Q460N5)
- ASSAY_INFO: AlphaScreen competitive binding assay, displacement of ADP-ribose peptide from PARP14 MD2
- Set-up: PARP14 MD2 (second MD of PARP14)
- TEST_CONTEXT: text and figures; read-out: PARP14 MD2 IC50

Here's what some known entries look like.
COMPOUND	ASSAY_SYSTEM	IC50
CC(=O)Nc1ccccc1-c1cn2c3ccccc3c3ccnc(c1=O)c32 [compound 19]	PARP14 MD2 (Homo sapiens, UniProt Q460N5)	> 50 µM
CC(=O)Nc1ccccc1-c1cccc2c3ccccc3n(C)c12 [compound 24]	PARP14 MD2 (Homo sapiens, UniProt Q460N5)	> 50 µM
CC(=O)Nc1ccncc1-c1cccc2c1[nH]c1ccccc12 [compound 15]	PARP14 MD2 (Homo sapiens, UniProt Q460N5)	> 50 µM
CC(=O)Nc1ccccc1-c1nccc2c1[nH]c1ccccc12 [compound 18]	PARP14 MD2 (Homo sapiens, UniProt Q460N5)	30 µM

// batch mode: one IC50 value per listed entry
1. CC(=O)Nc1cccnc1-c1cccc2c1[nH]c1ccccc12 [compound 16]
2. CC(=O)Nc1ccccc1-c1cccc2c1oc1ccccc12 [compound 26, N-[2-(Dibenzofuran-4-yl)phenyl]acetamide]
3. CC(=O)Nc1ccccc1-c1cn2c3ccccc3c3cccc(c1=O)c32 [compound 20]

Reply |
["> 50 µM", "> 50 µM", "> 50 µM"]

// batch mode: one IC50 value per listed entry
1. CC(=O)Nc1ccccc1-c1cccc2c1[nH]c1c(Cl)c(Cl)ccc12 [compound 37]
2. CC(=O)Nc1ccccc1-c1cccc2c3ccccc3n(Cc3ccccc3)c12 [compound 25]

Reply |
1.4 µM
> 50 µM

---

- ASSAY_SYSTEM: UniProt Q460N5
- ASSAY_INFO: BioLayer Interferometry (BLI)
- TEST_CONTEXT: read-out: KD (BLI)
REPORTED_PROPERTY: Kd (nM)
Answers are plain numbers, in nM.

Ask | Report Kd for N#Cc1cccc(CS(=O)(=O)Nc2ccccc2-c2cccc3c2[nH]c2ccccc23)c1 please.
Reply | 550

---

- ASSAY_SYSTEM: PARP14 MD2 (Homo sapiens, UniProt Q460N5)
- Sequence (Q460N5 1003-1190 limits assumed): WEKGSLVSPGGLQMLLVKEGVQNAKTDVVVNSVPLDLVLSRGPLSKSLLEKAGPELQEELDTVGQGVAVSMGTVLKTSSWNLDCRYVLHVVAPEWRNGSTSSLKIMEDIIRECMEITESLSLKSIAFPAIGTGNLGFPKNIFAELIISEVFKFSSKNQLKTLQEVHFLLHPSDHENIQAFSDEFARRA
- ASSAY_INFO: AlphaScreen competitive binding assay, displacement of ADP-ribose peptide from PARP14 MD2
- Parameters: PARP14 MD2 (second MD of PARP14)
- TEST_CONTEXT: Table 1; AlphaScreen, PARP14 MD2; read-out: IC50
pIC50: −log10 of the molar value.
REPORTED_PROPERTY: pIC50

MOLECULE	pIC50
CCN(C(C)=O)c1ccccc1-c1cccc2c1[nH]c1ccccc12 [compound 54]	< 4.30

// batch mode: one pIC50 value per listed entry
1. CS(=O)(=O)Nc1ccc(C(F)(F)F)cc1-c1cccc2c1[nH]c1ccccc12 [compound 58]
2. CC(=O)Nc1cnccc1-c1cccc2c1[nH]c1ccccc12 [compound 17]

Reply |
< 4.30
< 4.30
